Provenance of the data: patent US5436254A

# SYSTEM: V1 receptor (Rattus norvegicus, UniProt P30560)
# Sequence (P30560 whole entry): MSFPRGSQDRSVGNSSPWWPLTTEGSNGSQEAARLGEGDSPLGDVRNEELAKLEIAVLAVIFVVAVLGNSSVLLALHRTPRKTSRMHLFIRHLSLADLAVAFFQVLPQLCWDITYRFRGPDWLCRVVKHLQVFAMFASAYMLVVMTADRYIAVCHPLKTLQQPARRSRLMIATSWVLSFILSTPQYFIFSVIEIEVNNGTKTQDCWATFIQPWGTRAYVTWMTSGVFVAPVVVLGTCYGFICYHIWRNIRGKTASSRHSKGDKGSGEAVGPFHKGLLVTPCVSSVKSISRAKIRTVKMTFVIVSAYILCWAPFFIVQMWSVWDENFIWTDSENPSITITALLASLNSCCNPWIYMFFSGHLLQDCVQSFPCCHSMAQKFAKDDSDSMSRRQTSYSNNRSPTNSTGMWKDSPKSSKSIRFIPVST
# TEST_DESCRIPTION: biochemical
# Assay type: binding
QUANTITY_NAME: pIC50
Answers are plain numbers, as −log10 of the molar value.

For orientation, consider the following solved cases.
{"COMPOUND": "O=C(c1ccc(OCCCCCS(=O)(=O)c2ccc([N+](=O)[O-])cc2)cc1)N1CCC(N2C(=O)CCc3ccccc32)CC1 [Example 285]", "pIC50": 6.64}
{"COMPOUND": "COC(=O)[C@H](CCCCN)NC(=O)CCCCCOc1ccc(C(=O)N2CCC(N3C(=O)CCc4ccccc43)CC2)cc1 [Example 166]", "pIC50": 7.36}
{"COMPOUND": "CC(=O)Nc1ccc(C(=O)NCCCOc2ccc(C(=O)N3CCC(N4C(=O)CCc5ccccc54)CC3)cc2)cc1 [Example 196]", "pIC50": 6.77}

API: the following record is the query input.
Name the recorded pIC50 for O=C(c1ccc(C2CCCCC2)cc1)N1CCC(N2C(=O)CCc3ccccc32)CC1 [Example 112] .
6.01

###

# SYSTEM: V1 receptor (Rattus norvegicus, UniProt P30560)
# TEST_DESCRIPTION: biochemical
# Format: binding
Record form. Attribute: log10(IC50). Fill in for each entry.
For clarity, the numbers are log10 values of IC50 expressed in µM.

{"COMPOUND": "O=C(c1ccc(N2CCCC2)cc1)N1CCC(N2C(=O)CCc3ccccc32)CC1 [Example 91]", "SYSTEM": "V1 receptor (Rattus norvegicus, UniProt P30560)", "log10(IC50)": -0.14}
{"COMPOUND": "O=C(c1ccc(OCCCCCSc2ncccn2)cc1)N1CCC(N2C(=O)CCc3ccccc32)CC1 [Example 279]", "SYSTEM": "V1 receptor (Rattus norvegicus, UniProt P30560)", "log10(IC50)": -0.74}
{"COMPOUND": "O=C(c1ccc(OCCCCN2CCNCC2)cc1)N1CCC(N2C(=O)CCc3ccccc32)CC1 [Example 157]", "SYSTEM": "V1 receptor (Rattus norvegicus, UniProt P30560)", "log10(IC50)": -1.05}

Hi there! I need log10(IC50) for each item below, if you can.
1. O=C(c1ccc(OCCCCC[S+]([O-])c2ncccn2)cc1)N1CCC(N2C(=O)CCc3ccccc32)CC1 (centres unmarked) [Example 280]
2. CNc1ccc(C(=O)N2CCC(N3C(=O)CCc4ccccc43)CC2)c(OC)c1 [Example 48]
3. O=C(c1ccc(OCCCCCN2CCCCC2CO)cc1)N1CCC(N2C(=O)CCc3ccccc32)CC1 (centres unmarked) [Example 241]
4. CN1CCN(CCCCOc2ccc(C(=O)N3CCC(N4C(=O)CCc5ccccc54)CC3)cc2)CC1 [Example 158]

-1.06
-0.40
-1.68
-1.00

Find the recorded log10(IC50) belonging to CCOC(=O)CNC(=O)CCCOc1ccc(C(=O)N2CCC(N3C(=O)CCc4ccccc43)CC2)cc1 [Example 8] and report it.
-0.52

###

# SYSTEM: V1 receptor (Rattus norvegicus, UniProt P30560)
# TEST_DESCRIPTION: biochemical
# Type: binding
QUANTITY_NAME: log10(IC50) (log10 of the value in nM)
A value of 2 here means IC50 of 100 in nM, since values are log10.

{"MOLECULE": "CN(C)CCCCc1ccc(C(=O)N2CCC(N3C(=O)CCc4ccccc43)CC2)cc1", "QUANTITY_NAME": "log10(IC50)", "VALUE_OBSERVED": 2.60}
{"MOLECULE": "CN(C)CC(O)COCCCCCOc1ccc(C(=O)N2CCC(N3C(=O)CCc4ccccc43)CC2)cc1 (stereo not drawn)", "QUANTITY_NAME": "log10(IC50)", "VALUE_OBSERVED": 1.53}
{"MOLECULE": "O=C(CC12CC3CC(CC(C3)C1)C2)N1CCC(N2C(=O)CCc3ccccc32)CC1", "QUANTITY_NAME": "log10(IC50)", "VALUE_OBSERVED": 2.85}
{"MOLECULE": "Nc1ccc(S(=O)(=O)CCCCCOc2ccc(C(=O)N3CCC(N4C(=O)CCc5ccccc54)CC3)cc2)cc1", "QUANTITY_NAME": "log10(IC50)", "VALUE_OBSERVED": 2.18}
{"MOLECULE": "CC1CCN(CCCCCOc2ccc(C(=O)N3CCC(N4C(=O)CCc5ccccc54)CC3)cc2)CC1", "QUANTITY_NAME": "log10(IC50)", "VALUE_OBSERVED": 1.77}

Quick request: log10(IC50) for each listed item, please.
1. CCN(CC)CCCCCCCOc1ccc(C(=O)N2CCC(N3C(=O)CCc4ccccc43)CC2)cc1
2. COc1ccc(CNCC(O)CCCCOc2ccc(C(=O)N3CCC(N4C(=O)CCc5ccccc54)CC3)cc2)cc1OC (stereo not drawn)
3. CNCC(O)CCCOc1ccc(C(=O)N2CCC(N3C(=O)CCc4ccccc43)CC2)cc1 (stereo not drawn)
4. O=C(c1ccc(OCCCCn2cccc2)cc1)N1CCC(N2C(=O)CCc3ccccc32)CC1
5. O=C(c1ccc(OCCCC(O)CN2CCCCC2)cc1)N1CCC(N2C(=O)CCc3ccccc32)CC1 (stereo not drawn)
6. CC(=O)NCC(=O)NCCCCOc1ccc(C(=O)N2CCC(N3C(=O)CCc4ccccc43)CC2)cc1
7. C=CCOCCCOc1ccc(C(=O)N2CCC(N3C(=O)CCc4ccccc43)CC2)cc1
8. NC(=O)[C@H](Cc1c[nH]cn1)NC(=O)CCCCCOc1ccc(C(=O)N2CCC(N3C(=O)CCc4ccccc43)CC2)cc1

1. 1.43
2. 1.81
3. 2.52
4. 2.77
5. 1.83
6. 2.38
7. 2.72
8. 2.18

// each listed molecule needs a value for log10(IC50)
1. O=C(c1ccc(OCCCCC(O)CN2CCCC2)cc1)N1CCC(N2C(=O)CCc3ccccc32)CC1 (stereo not drawn)
2. N[C@@H](Cc1ccc(O)cc1)C(=O)NCCCOc1ccc(C(=O)N2CCC(N3C(=O)CCc4ccccc43)CC2)cc1

[1.43, 1.86]

###

# SYSTEM: V1 receptor (Rattus norvegicus, UniProt P30560)
# TEST_DESCRIPTION: biochemical
# Type: binding
pIC50: −log10 of the molar value.
Rule: pIC50 of 7 or more gives T; anything lower gives F.

For orientation, consider the following solved cases.
{"MOLECULE": "COc1ccc(C(=O)N2CCC(N3C(=O)CCc4cc(F)ccc43)CC2)c(OC)c1", "SYSTEM": "V1 receptor (Rattus norvegicus, UniProt P30560)", "ANSWER_LABEL": "F"}
{"MOLECULE": "N#CCCCOc1ccc(C(=O)N2CCC(N3C(=O)CCc4ccccc43)CC2)cc1", "SYSTEM": "V1 receptor (Rattus norvegicus, UniProt P30560)", "ANSWER_LABEL": "F"}
{"MOLECULE": "Cc1ccc(S(=O)(=O)NCCCOc2ccc(C(=O)N3CCC(N4C(=O)CCc5ccccc54)CC3)cc2)cc1", "SYSTEM": "V1 receptor (Rattus norvegicus, UniProt P30560)", "ANSWER_LABEL": "F"}
{"MOLECULE": "O=C(CCCCCOc1ccc(C(=O)N2CCC(N3C(=O)CCc4ccccc43)CC2)cc1)c1nc2cnccc2[nH]1", "SYSTEM": "V1 receptor (Rattus norvegicus, UniProt P30560)", "ANSWER_LABEL": "F"}
{"MOLECULE": "NC(=O)C1CCN(C(=O)CCCCCOc2ccc(C(=O)N3CCC(N4C(=O)CCc5ccccc54)CC3)cc2)CC1", "SYSTEM": "V1 receptor (Rattus norvegicus, UniProt P30560)", "ANSWER_LABEL": "T"}

State whether the measured pIC50 reaches 7, counting equality as reaching it, for "COc1ccc(N2CCN(CCCOc3ccc(C(=O)N4CCC(N5C(=O)CCc6ccccc65)CC4)cc3)CC2)cc1"
F

Has "O=C(Nc1ccccc1)N1CCN(CCCOc2ccc(C(=O)N3CCC(N4C(=O)CCc5ccccc54)CC3)cc2)CC1" a recorded pIC50 greater than or equal to 7?
F

Can "O=C(c1ccc(OCCCNCc2ccccc2)cc1)N1CCC(N2C(=O)CCc3ccccc32)CC1" be said to have pIC50 at or above 7?
F

// inclusive: pIC50 at least 7? input: CCN(CC)CC(O)COCCCCCOc1ccc(C(=O)N2CCC(N3C(=O)CCc4ccccc43)CC2)cc1 (stereo not drawn)
T

Is pIC50 for "COC(=O)N1CCN(CCCCOc2ccc(C(=O)N3CCC(N4C(=O)CCc5ccccc54)CC3)cc2)CC1" at or above 7?
F

Determine whether this molecule has pIC50 no lower than 7: "O=C(c1ccc(C(F)(F)F)cc1)N1CCC(N2C(=O)CCc3ccccc32)CC1"
F

# bool: pIC50 of O=C(c1ccc(OCCCCC(O)CN2CCN(Cc3ccccc3)CC2)cc1)N1CCC(N2C(=O)CCc3ccccc32)CC1 (stereo not drawn) >= 7
T
